Test system: SF-295
ASSAY_PROTOCOL: NCI tumour cell line growth inhibition, 48 h
The source made the active and inactive calls. Cut-off read from the data, not from the text of the source: active = GI50 up to about 1.1 µM and inactive = higher.
PARAMETER: GI50

{"columns": ["ITEM_SMILES", "READOUT_VALUE"],
 "data": [
  ["O=C1N[C@@H]([C@H](CCCCCO)OC(=O)c2ccccc2)CO1", "> 100 µM (inactive)"]
]}

Item under review: `O=C1Nc2ccccc2/C1=N/N1C(=O)/C(=C/c2ccccc2S)N=C1c1ccccc1` . Reported GI50? > 100 µM (inactive)

Input `COc1ccc(NC(=O)/C(O)=C/C(=O)c2ccccc2)cc1` > 10 µM (inactive)

Input `COc1c(C(=O)O)cccc1-c1cccc(C(=O)NCCN(CCNC(=O)c2cccc(-c3cccc(C(=O)O)c3OC)c2OC)CCNC(=O)c2cccc(-c3cccc(C(=O)O)c3OC)c2OC)c1OC` 40.5 µM (inactive)

###

This section presents compounds with their documented GI50 values.
Tested on: UACC-62
ASSAY_PROTOCOL: NCI tumour cell line growth inhibition, 48 h
Activity calls are given as the source filed them. No stated cut-off is given here; in the data, active = GI50 up to about 1.1 µM and inactive = higher.

{"columns": ["COMPOUND", "READOUT_VALUE"],
 "data": [
  ["Cc1[nH]c(=O)nc(N/N=C/c2ccc(O)cc2)c1C(=O)Nc1ccc(O)cc1", "> 100 µM (inactive)"]
]}

Record `Cc1ccc(O)c(Cc2nc3ccccc3nc2-c2cccc(Br)c2)c1` : what is its GI50 with UACC-62? > 100 µM (inactive)

Input `COc1ccc2c(c1O)[C@@]13CCCC=C1[C@@H](C2)N(C)CC3` > 100 µM (inactive)

Input O=C(O)/C(Cl)=C(\Cl)C(=O)NC1C2CC3CC(C2)CC1C3 (stereo not given) > 100 µM (inactive)

Input O=C1C=CC2(O[C@@H](Cc3ccccc3)[C@H](Cc3ccccc3)O2)C(SC(=O)c2ccccc2)C1 (stereo not given in full) 2.24 µM (inactive)

Input `CCOC(=O)Nc1ccc(S(=O)(=O)I)cc1.CCOC(=O)Nc1ccc(S(=O)(=O)I)cc1.CNC(=O)N=O.NC(=O)OCCCl` 73.6 µM (inactive)

###

Test system: KM12
ASSAY_PROTOCOL: NCI tumour cell line growth inhibition, 48 h
Activity calls are given as the source filed them. No stated cut-off is given here; in the data, active = GI50 up to about 1.1 µM and inactive = higher.
Lab note: assign the record to one of class 1 for active, class 0 for inactive

Observe how each entry below is paired with its result.
{"columns": ["COMPOUND", "SYSTEM_NAME", "DISCRETE_LABEL"],
 "data": [
  ["O=C1CCCCC1CN1CCCC1 (stereo unspecified)", "KM12", "class 0"],
  ["N#Cc1c(-c2ccc(Cl)cc2)c2c(n(C3OC(CO)C(O)C(O)C3O)c1=S)CCCC2 (stereo unspecified)", "KM12", "class 0"],
  ["CC1C(NNC(N)=O)Oc2cc3c(cc2C1c1ccccc1O)OCO3 (stereo unspecified)", "KM12", "class 0"],
  ["COc1cc2c(cc1OC)C1CN3C(=O)CCC3C(O)C1c1cc(OC)c(OC)cc1-2 (stereo unspecified)", "KM12", "class 0"]
]}

Could you check what this test reported for `O=C1Nc2ccccc2/C1=N/NC(=S)NCc1ccccn1` ? class 1

Input `C[Si](C)(C)/C=C\CCO` class 0

Input `C=C1CN(C(=O)c2cc3cc(OC)c(OC)c(OC)c3[nH]2)c2cc([N+](=O)[O-])ccc21` class 0

Input `COc1ccc(/C=C2\N=C3NC(=O)C(N4CCOCC4)=C(N)N3C2=O)cc1` class 0

Input CC(=O)C1C(=O)C(=O)N(c2ccc(Br)cc2)C1=O (stereo unspecified) class 0

Input `CCN(CC)C(=O)c1c(Cl)cc(N(CC)CC)oc1=O` class 0

Input C/C(=C\CC/C=C(\C)CC/C=C(\C)CCC1SC1(C)C)CC/C=C(\C)CCC1OC1(C)C (stereo unspecified) class 0

###

Tested on: OVCAR-5
ASSAY_PROTOCOL: NCI tumour cell line growth inhibition, 48 h
The source made the active and inactive calls. Cut-off read from the data, not from the text of the source: active = GI50 up to about 1.1 µM and inactive = higher.
PARAMETER: GI50

Known results for compounds:
{"columns": ["ITEM_SMILES", "GI50"],
 "data": [
  ["CCSC(SCC)c1cc2c(cc1Br)OCO2", "27.2 µM (inactive)"],
  ["CCOC(=O)c1cn2c(n1)sc1cccc(C)c12", "> 100 µM (inactive)"],
  ["CSc1c(C#N)c(N)n2c1C(=O)N(c1ccccc1)C2=S", "> 100 µM (inactive)"]
]}

Next compound, GI50 to be filled in.
Record `CSC(=N/N=C(\C)c1ccc(S(=O)(=O)N(C)c2ccccc2)cc1)SC` : what is its GI50 with OVCAR-5? > 66.5 µM (inactive)

###

Test system: SN12C
ASSAY_PROTOCOL: NCI tumour cell line growth inhibition, 48 h
Calls of active or inactive are those of the source. No stated cut-off is given here; in the data, active = GI50 up to about 1.1 µM and inactive = higher.
PARAMETER: GI50

{"columns": ["COMPOUND", "SYSTEM_NAME", "GI50"],
 "data": [
  ["CCOP(=O)(OCC)C(Nc1ccc(F)cc1)c1ccccc1 (stereo unspecified)", "SN12C", "43.8 µM (inactive)"],
  ["COC(=O)C1=C(c2cc(OC)c(OC)c(OC)c2)OC(c2ccc3c(c2)OCO3)C1 (stereo unspecified)", "SN12C", "20.3 µM (inactive)"],
  ["COc1ccc(/C=C/c2ccnc3ccccc23)cc1OC", "SN12C", "17.9 µM (inactive)"],
  ["CC1(C)N/C(=C\\[N+](=O)[O-])C(C)(C)N1O", "SN12C", "> 10 µM (inactive)"]
]}

Record `CC(C)(C)C(=O)OCC(COC(=O)C(C)(C)C)[N+](=O)[O-]` : what is its GI50 with SN12C? > 100 µM (inactive)

Input `CCOP(=O)(Nc1ccc2oc(=O)c3ccccc3c2c1)OCC` > 100 µM (inactive)

###

Tested on: A498
ASSAY_PROTOCOL: NCI tumour cell line growth inhibition, 48 h
Calls of active or inactive are those of the source. No stated cut-off is given here; in the data, active = GI50 up to about 1.1 µM and inactive = higher. Where a SMILES comes first, the peptide text is derived from it. [ ]: non-standard residue; d: D form. ξ: configuration not given here. ξThz(5,5-Me2) = CC1(C)SCNC1C(=O)O
Lab note: assign the record to one of 1 for active, 0 for inactive

Observe how each entry below is paired with its result.
{"columns": ["MOLECULE", "SYSTEM_NAME", "DISCRETE_LABEL"],
 "data": [
  ["COc1ccc(OC)c(/C=C/c2ccnc3ccccc23)c1", "A498", 1],
  ["CSCC[C@H](NC(=O)[C@H](CC(C)C)NC(=O)[C@H](Cc1c[nH]cn1)NC(=O)CNC(=O)C1N(C(=O)[C@@H](C)NC(=O)[C@H](Cc2c[nH]c3ccccc23)NC(=O)[C@H](CCC(N)=O)NC(=O)[C@@H](N)CC(N)=O)CSC1(C)C)C(N)=O (some centres undefined) (H-NQW[dA][ξThz(5,5-Me2)]GHLM-NH2)", "A498", 0],
  ["Nc1nc(SCC(=O)c2ccc(Br)cc2)c2nc[nH]c2n1", "A498", 0],
  ["C/C(CC(=O)NCCc1ccccc1)=N\\NS(=O)(=O)c1ccc(C)cc1", "A498", 0],
  ["COc1ccc(C(=O)O/N=C2/CCC/C2=C\\c2ccccc2)cc1", "A498", 0]
]}

Continue with the molecule presented below.
Could you check what this test reported for COc1ccc2c(c1C)C(=O)C(O)(CC=C(C)C)O2 (centres undefined) ? 0

###

Tested on: SK-MEL-28
ASSAY_PROTOCOL: NCI tumour cell line growth inhibition, 48 h
Activity calls are given as the source filed them. No stated cut-off is given here; in the data, active = GI50 up to about 1.1 µM and inactive = higher.
PARAMETER: GI50

Known results for compounds:
{"columns": ["COMPOUND", "GI50"],
 "data": [
  ["CCOc1cc(NC(C)=O)ccc1C(=O)NN1C(=O)/C(=C/c2ccco2)N=C1c1ccccc1", "> 100 µM (inactive)"],
  ["c1ccc(CN2CCC3(CC2)SSC2(CCN(Cc4ccccc4)CC2)SS3)cc1", "34.9 µM (inactive)"],
  ["NS(=O)(=O)c1ccc(NC(=S)NC(=O)Nc2ccc(Cl)c(Cl)c2)cc1", "17.8 µM (inactive)"],
  ["CN1CC[C@]2(C)c3ccc(O)cc3CC3CCCC1C32C (stereo partly specified)", "> 100 µM (inactive)"],
  ["Nc1nnnn1CCO", "> 100 µM (inactive)"]
]}

Next compound, GI50 to be filled in.
Item under review: CC1(CCOCc2ccccc2)NC(=O)NC1=O (stereo unspecified) . Reported GI50? > 100 µM (inactive)

###

System: NCI-H226
ASSAY_PROTOCOL: NCI tumour cell line growth inhibition, 48 h
The source made the active and inactive calls. No stated cut-off is given here; in the data, active = GI50 up to about 1.1 µM and inactive = higher. Where a SMILES comes first, the peptide text is derived from it. [ ]: non-standard residue; d: D form. ξ: configuration not given here. ξThz(5,5-Me2) = CC1(C)SCNC1C(=O)O
PARAMETER: GI50

Known results for compounds:
{"columns": ["COMPOUND", "READOUT_VALUE"],
 "data": [
  ["N#C/C(=C\\c1ccc2[nH]ccc2c1)C(=O)NCCCCNC(=O)/C(C#N)=C/c1ccc2[nH]ccc2c1", "> 31.6 µM (inactive)"],
  ["CSCC[C@H](NC(=O)[C@H](CC(C)C)NC(=O)[C@H](Cc1c[nH]cn1)NC(=O)CNC(=O)C1N(C(=O)[C@@H](C)NC(=O)[C@H](Cc2c[nH]c3ccccc23)NC(=O)[C@H](CCC(N)=O)NC(=O)[C@@H](N)CC(N)=O)CSC1(C)C)C(N)=O (stereo not given in full) (H-NQW[dA][ξThz(5,5-Me2)]GHLM-NH2)", "> 25 µM (inactive)"]
]}

Item under review: `Cn1c(=O)ccc2c(=O)c3ccccc3oc21` . Reported GI50? > 100 µM (inactive)

Input `N/C(=N\O)N/N=C\c1c2ccccc2c(Cl)c2ccccc12` 2.13 µM (inactive)

Input `COc1c(Br)cc(/C=C(\C#N)c2ccccn2)cc1Br` 48.4 µM (inactive)

Input O=C1CC(CC(O)C(O)C(O)CO)CC(=O)N1 (stereo not given) > 100 µM (inactive)

Input CCCCCCCCCCCCCCCC(=O)OC1C(O)C(O)C(O)C(O)C12CO2 (stereo not given) 42.8 µM (inactive)
